// provenance: patent US8026235B1

biological target: human vanilloid-1 (TRPV1) (Homo sapiens); construct: expressed in transfected cells; host or cells: HEK293 Tet-on (hVR-1-HEK293), expression induced with doxycycline; test: Inhibitory effect on capsaicin-stimulated calcium influx via a vanilloid receptor in hVR-1-HEK293 cells (Fluo-3/AM); type: cell-based; conditions: 1 μM capsaicin, compounds 0.015˜2000 nM, read-out: I.A. (inhibitory activity), IC50 class
Measurement type: IC50

The cases that follow already have their IC50 on record.
>>> recorded_measurement("COc1ccc(N2CCOc3c(-c4nc5ccc(C(C)(C)C)cc5[nH]4)cccc32)nc1")
"101 to 500 nM"
>>> recorded_measurement("COc1ccc(N2c3cccc(-c4nc5ccc(OC(F)(F)F)cc5[nH]4)c3OC[C@@H]2CO)nc1")
"20 to 100 nM"
>>> recorded_measurement("COc1ccc(N2c3cccc(-c4nc5c(Br)cc(Br)cc5[nH]4)c3OC[C@@H]2CO)nc1")
"101 to 500 nM"

[Q] Return IC50 (reported value) for this molecule: `COc1ccc(N2c3cccc(-c4nc5c(Br)cc(C(F)(F)F)cc5[nH]4)c3OC[C@@H]2CO)nc1`
[A] 101 to 500 nM

---

test system: PBQ-induced writhing in ICR male mice; assay: Phenyl-p-quinone (PBQ)-induced writhing experiment using mice (effect on pain); assay type: in vivo; conditions: oral, PBQ (0.02%) i.p. after 1 hour, writhing counted for 10 min
Measurement type: I.A. (inhibitory activity), % inhibition rate class

Use the examples below as a reference point.
>>> recorded_measurement("COc1ccc(N2c3cccc(-c4nc5c(Br)cc(Br)cc5[nH]4)c3OC[C@@H]2CO)nc1 [Example 9]")
"++ (20˜50%)"
>>> recorded_measurement("COc1ccc(N2c3cccc(-c4nc5c(Cl)cc(C(F)(F)F)cc5[nH]4)c3OC[C@@H]2CO)nc1 [Example 8]")
"+++ (51-80%)"
>>> recorded_measurement("COc1ccc(N2c3cccc(-c4nc5cc(F)c(Cl)cc5[nH]4)c3OC[C@@H]2CO)nc1 [Example 6]")
"+++ (51-80%)"
>>> recorded_measurement("COc1ccc(N2c3cccc(-c4nc5ccc(C(F)(F)F)cc5[nH]4)c3OC[C@@H]2CO)nc1 [Example 2]")
"++ (20˜50%)"

Now examine the next entry.
[Q] Jot down I.A. (inhibitory activity), % inhibition rate class (PBQ-induced writhing in ICR male mice) of COc1ccc(N2c3cccc(-c4nc5cc(Cl)c(Cl)cc5[nH]4)c3OC[C@@H]2CO)nc1 [Example 3] .
[A] ++ (20˜50%)

---

tested on: SD rats (Sprague-Dawley rats); assay: Assay for body temperature change (rectal temperature) in SD rats; assay type: in vivo; conditions: single oral administration, rectal temperature up to 8 hr
Measurement type: Change in Body Temp.

Worked examples, 4 molecules total:
>>> recorded_measurement("COc1ccc(N2CCOc3c(-c4nc5ccc(C(C)(C)C)cc5[nH]4)cccc32)nc1")
"+/− (±<0.5° C.)"
>>> recorded_measurement("COc1ccc(N2c3cccc(-c4nc5c(Cl)cc(C(F)(F)F)cc5[nH]4)c3OC[C@@H]2CO)nc1")
"+/− (±<0.5° C.)"
>>> recorded_measurement("COc1ccc(N2c3cccc(-c4nc5ccc(C(F)(F)F)cc5[nH]4)c3OC[C@@H]2CO)nc1")
"+ (0.5^~1.0° C.)"
>>> recorded_measurement("COc1ccc(N2c3cccc(-c4nc5cc(F)c(Cl)cc5[nH]4)c3OC[C@@H]2CO)nc1")
"+/− (±<0.5° C.)"

[Q] Please look at `COc1ccc(N2c3cccc(-c4nc5c(Br)cc(Br)cc5[nH]4)c3OC[C@@H]2CO)nc1` and tell me its recorded Change in Body Temp. on SD rats (Sprague-Dawley rats).
[A] + (0.5^~1.0° C.)

[Q] Give the observed Change in Body Temp. of `COc1ccc(N2c3cccc(-c4nc5c(Br)cc(OC(F)(F)F)cc5[nH]4)c3OC[C@@H]2CO)nc1` for SD rats (Sprague-Dawley rats).
[A] + (0.5^~1.0° C.)

[Q] Give Change in Body Temp.; test system SD rats (Sprague-Dawley rats); molecule `COc1ccc(N2c3cccc(-c4nc5ccc(OC(F)(F)F)cc5[nH]4)c3OC[C@@H]2CO)nc1`
[A] +/− (±<0.5° C.)

[Q] Write down measured Change in Body Temp. (SD rats (Sprague-Dawley rats)) for this molecule. `COc1ccc(N2c3cccc(-c4nc5cc(Cl)c(Cl)cc5[nH]4)c3OC[C@@H]2CO)nc1`
[A] +/− (±<0.5° C.)

[Q] Give Change in Body Temp. for this entry on SD rats (Sprague-Dawley rats): `COc1ccc(N2c3cccc(-c4nc5c(Br)cc(C(F)(F)F)cc5[nH]4)c3OC[C@@H]2CO)nc1`
[A] + (0.5^~1.0° C.)

---

// IC50 lookup, one value per entry
Molecular target: human vanilloid-1 (TRPV1) (Homo sapiens)
Construct: expressed in transfected cells; host or cells: HEK293 Tet-on (hVR-1-HEK293), expression induced with doxycycline
Experiment: Inhibitory effect on capsaicin-stimulated calcium influx via a vanilloid receptor in hVR-1-HEK293 cells (Fluo-3/AM)
Type: cell-based
Conditions: 1 μM capsaicin, compounds 0.015˜2000 nM, read-out: I.A. (inhibitory activity), IC50 class
Protocol: In order to confirm the antagonistic activities of the inventive compounds, inhibitory effects of the compounds on calcium influx were examined as follows. hVR-1-HEK293 cell line is a human embryonic kidney (HEK) cell 293 Tet-on strain transformed with a human vanilloid-1 gene (pTRE2hyg-hVR-1 7.8 kb). […] The inhibitory activities were evaluated from the obtained intracellular calcium influx values according to the following criteria.

>>> recorded_measurement("COc1ccc(N2c3cccc(-c4nc5cc(F)c(Cl)cc5[nH]4)c3OC[C@@H]2CO)nc1")
"20 to 100 nM"
>>> recorded_measurement("COc1ccc(N2c3cccc(-c4nc5c(Br)cc(OC(F)(F)F)cc5[nH]4)c3OC[C@@H]2CO)nc1")
"< 20 nM"
>>> recorded_measurement("COc1ccc(N2c3cccc(-c4nc5cc(Cl)c(Cl)cc5[nH]4)c3OC[C@@H]2CO)nc1")
"20 to 100 nM"
>>> recorded_measurement("COc1ccc(N2c3cccc(-c4nc5c(Cl)cc(C(F)(F)F)cc5[nH]4)c3OC[C@@H]2CO)nc1")
"20 to 100 nM"

Moving on to another compound below.
[Q] Report the value of IC50 obtained on human vanilloid-1 (TRPV1) (Homo sapiens) for `COc1ccc(N2c3cccc(-c4nc5ccc(C(F)(F)F)cc5[nH]4)c3OC[C@@H]2CO)nc1` .
[A] 20 to 100 nM

---

target: human vanilloid-1 (TRPV1) (Homo sapiens, UniProt Q8NER1); construct: expressed in transfected cells; host or cells: HEK293 Tet-on (hVR-1-HEK293), expression induced with doxycycline; assay: Inhibitory effect on capsaicin-stimulated calcium influx via a vanilloid receptor in hVR-1-HEK293 cells (Fluo-3/AM); format: cell-based; details: 1 μM capsaicin, read-out: IC50 on calcium influx
Sequence (Q8NER1 whole entry): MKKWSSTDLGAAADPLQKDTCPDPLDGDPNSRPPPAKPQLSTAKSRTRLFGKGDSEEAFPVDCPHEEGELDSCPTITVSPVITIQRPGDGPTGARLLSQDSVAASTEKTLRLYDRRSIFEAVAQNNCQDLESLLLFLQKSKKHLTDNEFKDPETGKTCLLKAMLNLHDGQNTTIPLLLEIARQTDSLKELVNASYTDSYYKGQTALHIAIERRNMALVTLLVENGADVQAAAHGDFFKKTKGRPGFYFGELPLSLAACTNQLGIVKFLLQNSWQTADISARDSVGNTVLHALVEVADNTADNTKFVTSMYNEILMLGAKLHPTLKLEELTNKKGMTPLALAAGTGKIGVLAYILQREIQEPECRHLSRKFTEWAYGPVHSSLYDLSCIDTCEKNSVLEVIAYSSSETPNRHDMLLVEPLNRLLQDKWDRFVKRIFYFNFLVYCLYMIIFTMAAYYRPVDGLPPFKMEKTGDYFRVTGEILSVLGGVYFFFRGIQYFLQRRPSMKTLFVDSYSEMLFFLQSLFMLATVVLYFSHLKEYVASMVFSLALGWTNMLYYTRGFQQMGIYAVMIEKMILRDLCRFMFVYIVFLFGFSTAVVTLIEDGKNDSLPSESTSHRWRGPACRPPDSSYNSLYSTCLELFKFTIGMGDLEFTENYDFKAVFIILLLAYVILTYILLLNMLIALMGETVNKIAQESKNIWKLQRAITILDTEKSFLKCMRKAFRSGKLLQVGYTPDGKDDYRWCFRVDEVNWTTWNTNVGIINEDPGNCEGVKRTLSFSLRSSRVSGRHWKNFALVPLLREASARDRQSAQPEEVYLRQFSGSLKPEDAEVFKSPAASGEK
pIC50: −log10 of the molar value.
Measurement type: pIC50

[Q] Give recorded pIC50. O=C(Nc1ccccc1Br)N[C@@H]1CCN(c2ccc(C(F)(F)F)cn2)C1 [SB-705498, reference compound]
[A] 6.82 to 7.00

---

system: PBQ-induced writhing in ICR male mice; assay: Phenyl-p-quinone (PBQ)-induced writhing experiment using mice (effect on pain); assay type: in vivo; settings: oral, PBQ (0.02%) i.p. after 1 hour, writhing counted for 10 min
Measurement type: I.A. (inhibitory activity), % inhibition rate class

>>> recorded_measurement("COc1ccc(N2c3cccc(-c4nc5ccc(OC(F)(F)F)cc5[nH]4)c3OC[C@@H]2CO)nc1")
"++ (20˜50%)"
>>> recorded_measurement("COc1ccc(N2CCOc3c(-c4nc5ccc(C(C)(C)C)cc5[nH]4)cccc32)nc1")
"++ (20˜50%)"
>>> recorded_measurement("COc1ccc(N2c3cccc(-c4nc5c(Br)cc(C(F)(F)F)cc5[nH]4)c3OC[C@@H]2CO)nc1")
"++ (20˜50%)"
